Cited source: patent US5126246A

Could you please report measured Activity of lipase (%) for the items listed next?
- System: monoglyceride lipase
- assay-text: Substrate specificity of the monoglyceride lipase (enzymatic activity assay, glycerol formed)
- Format: biochemical, Bacillus stearothermophilus H-165
- conditions-used: relative activity of monoglyceride lipase on the substrate; Monolaurin 100.0
// note: answer is a bare numeric in %

Q: Find Activity of lipase (%) (monoglyceride lipase) for the entry CCCCCCCCCC(=O)OCC(O)CO (stereo not shown)
Result: 89.1

Q: Please answer likewise for CCCC(=O)OCC(O)CO (stereo not shown)
Result: 47.1

Q: Please answer likewise for CCCCC/C=C\C/C=C\CCCCCCCC(=O)OCC(CO)OC(=O)CCCCCCC/C=C\C/C=C\CCCCC (stereo not shown)
Result: 0

Q: Please answer likewise for CCCC(=O)OCC(COC(=O)CCC)OC(=O)CCC
Result: 0

Q: Please answer likewise for CC(=O)OCC(COC(C)=O)OC(C)=O
Result: 0

Q: Please answer likewise for CCCCC/C=C\C/C=C\CCCCCCCC(=O)OCC(O)COC(=O)CCCCCCC/C=C\C/C=C\CCCCC
Result: 0

Q: Please answer likewise for CCCCCCCCCCCCCC(=O)OCC(O)CO (stereo not shown)
Result: 85.7
